// reported MIC for each item listed
Tested on: Enterococcus gallinarum
Experiment: Antibacterial activity against Vancomycin resistant Enterococcus gallinarum MB111 after 24 hrs by microdilution assay
Assay type: functional
Conditions: MB111, 24 h

Examples with answers:
molecule="CC1=CC(=O)O[C@@H]1C/C=C(\\C)CC[C@@H]1[C@@]2(C)CCC[C@@]3(C)C(O)O[C@@H](C[C@@]1(C)O)[C@H]23 (stereo not given in full)" system_name="Enterococcus gallinarum" measure_name=MIC recorded_value="> 128 mg/L"
molecule=CC1=CC(=O)O[C@@H]1[C@@H](O)/C=C(\C)CC[C@@H]1[C@@]2(C)CCC[C@@]3(C)C(=O)O[C@@H](C[C@@]1(C)O)[C@H]23 system_name="Enterococcus gallinarum" measure_name=MIC recorded_value="148 µM"
molecule=COc1ccc(-c2cc(=O)c3c(OC)c(OC)c(OC)cc3o2)cc1OC system_name="Enterococcus gallinarum" measure_name=MIC recorded_value="172 µM"
molecule=COC(=O)[C@]1(C)CCC[C@@]2(C)[C@H]1CC[C@@](C)(O)[C@@H]2CC/C(C)=C/C[C@H]1OC(=O)C=C1C system_name="Enterococcus gallinarum" measure_name=MIC recorded_value="148 µM"
molecule=C=C[C@@](C)(O)CC[C@@H]1[C@@]2(C)CCCC(C)(C)[C@@H]2CC[C@@]1(C)O system_name="Enterococcus gallinarum" measure_name=MIC recorded_value="207 µM"

// next item, MIC requested
Give MIC for this entry on Enterococcus gallinarum: CC1=CC(=O)O[C@@H]1C/C=C(\C)CC[C@@H]1[C@@]2(C)CCC[C@@](C)(CO)[C@@H]2[C@@H](O)C[C@@]1(C)O
> 128 mg/L

Origin of values: ChEMBL document CHEMBL4610084
